EC50 PDL1 overview
- testSystem: T1, full-length untagged human GPNMB expressed on cells (human, UniProt Q14956 23-572)
- T1 sequence: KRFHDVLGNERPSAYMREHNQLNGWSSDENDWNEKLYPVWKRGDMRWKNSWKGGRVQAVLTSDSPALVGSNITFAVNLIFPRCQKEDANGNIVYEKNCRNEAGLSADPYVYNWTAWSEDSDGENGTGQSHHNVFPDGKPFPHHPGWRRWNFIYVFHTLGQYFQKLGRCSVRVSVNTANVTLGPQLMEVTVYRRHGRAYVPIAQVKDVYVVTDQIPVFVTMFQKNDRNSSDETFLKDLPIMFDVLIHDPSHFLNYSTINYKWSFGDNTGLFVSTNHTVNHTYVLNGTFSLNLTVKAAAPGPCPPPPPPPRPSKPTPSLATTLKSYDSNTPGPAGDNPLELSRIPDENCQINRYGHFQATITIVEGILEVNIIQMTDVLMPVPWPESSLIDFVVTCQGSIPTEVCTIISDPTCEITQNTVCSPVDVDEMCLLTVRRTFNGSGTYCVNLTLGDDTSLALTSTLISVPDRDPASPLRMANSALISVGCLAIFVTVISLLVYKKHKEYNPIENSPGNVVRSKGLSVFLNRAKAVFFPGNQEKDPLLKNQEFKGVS
- measurementNotes: cell-based or functional assay
Give the value, in units of nM, as a plain number.

| binder | EC50 PDL1 (nM) |
| --- | --- |
| anti-GPNMB antibody GPN-92 (antibody, V domains shown, humanized GPN-08) VH: QVQLVQSGAEVKKPGASVKVSCKASGYTFTSYWMHWVRQAPGQGLEWMGEINPSDGRTNYAQKFQGRVTMTVDKSTSTVYMELSSLRSEDTAVYYCARSGGNYAWFAYWGQGTLVTVSS VL: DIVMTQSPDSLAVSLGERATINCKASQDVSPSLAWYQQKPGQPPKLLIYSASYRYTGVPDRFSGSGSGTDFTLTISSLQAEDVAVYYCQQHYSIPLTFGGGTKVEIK | 1.36 |

Please find the next binder below.
[ask] # query: EC50 PDL1 of entry anti-GPNMB antibody GPN-89 (antibody, V domains shown) VH: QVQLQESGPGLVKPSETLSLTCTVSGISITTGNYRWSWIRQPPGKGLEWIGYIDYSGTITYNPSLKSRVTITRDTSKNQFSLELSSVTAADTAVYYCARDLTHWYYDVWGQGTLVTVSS VL: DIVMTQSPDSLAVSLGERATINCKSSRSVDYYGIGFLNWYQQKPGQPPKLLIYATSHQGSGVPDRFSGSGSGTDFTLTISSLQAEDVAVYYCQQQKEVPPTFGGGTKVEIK
[reply] 1

Taken from patent US20250270343A1.
